- Test system: Mtb strain mc^27000
- assay_name: microbe, parasite or virus in culture
- Type: cell-based, Mycobacterium tuberculosis
- experimental_context: Mycobacterium tuberculosis, Mtb mc^27000, liquid medium, 96-well plates; read-out: MIC
# log10(MIC) per record follows
# log10 transformed; quantity=MIC; unit=µM

Worked examples, 3 compounds total:
# compound, log10(MIC)
data = [
    ("CNC(=O)c1c(-c2ccc(O)cc2)oc2ccc(O)c(CN3CCC(CO)C3)c12 (stereo not drawn) [compound 122]", 0.00),
    ("CCOC(=O)c1c(-c2ccccc2)oc2cc(O)cc(CN3CCC(C#N)CC3)c12 [compound 69]", 1.30),
    ("CCOC(=O)c1c(-c2ccccc2)oc2cc(N)c(O)c(CN3CCCCC3)c12 [compound 27]", 0.90),
]

Prompt line: Bench note: what log10(MIC) did O=C(c1c(-c2ccccc2)oc2ccc(O)c(CN3CCCCC3)c12)N1CCNCC1 [compound 41] show?
Response line: 1.30

Prompt line: Give the measured log10(MIC) of CCOC(=O)c1c(-c2ccccc2)oc2cc(OC)cc(CNC(C)C)c12 [compound 72] .
Response line: 0.87

Prompt line: Name the reported log10(MIC) value associated with the compound CCOC(=O)c1c(-c2ccccc2)oc2ccc(O)c(CCCN3CCC(CCCO)C3)c12 (stereo not drawn) [compound 162]
Response line: 0.40
